Target: UniProt:O75469
Assay: Temperature-dependent circular dichroism, stabilization of PXR-LBD-L10-SRC
Settings: from CD thermal denaturation, 25 uM compound
pKd: −log10 of the molar value.
measurement name: pKd

INSERT INTO results (chemical_structure, measured_target, reading) VALUES
  ('Clc1ccccc1C(c1ccccc1)(c1ccccc1)n1ccnc1', 'UniProt:O75469', 6.70);

---

Molecular target: UniProt O75469
Experiment: Temperature-dependent circular dichroism, stabilization of PXR-LBD-L10-SRC
Conditions: human, pH 7.9
measurement name: ΔTm at 25 µM (°C)

INSERT INTO assay_data (molecule, measurement_name, uom, reading) VALUES
  ('O=C1C(CC[S+]([O-])c2ccccc2)C(=O)N(c2ccccc2)N1c1ccccc1 (stereo not shown)', 'ΔTm at 25 µM', '°C', 2.3);
